Data origin: the supplement of paper PMC9732359

assay: protein stability index of a GFP-peptide fusion (yeast GPS) (PSI 1-4); higher = more stable; sorted into four equal gates, so the index is relative within each strain; conditions: ubr1∆
PROPERTY: protein stability index

INSERT INTO measurements (sequence_string, property, meas_value) VALUES
  ('NNDGSYGLFLKYHKEQF [SRB8]', 'protein stability index', 1.82),
  ('YINGKATALANLRKSRG [RPO31]', 'protein stability index', 3),
  ('EYVYFFNNTSVIQDEVL [RPC40]', 'protein stability index', 2.55),
  ('SDREMAALIASKVYYNL [RPN2]', 'protein stability index', 1.7),
  ('NDYLEKHSVTEYIFEAH [CDC53]', 'protein stability index', 3.17),
  ('GHRADVGGQFSKVQFDA [REC8]', 'protein stability index', 3.23),
  ('VPSHVPQVLINRDPVKH [SIR2]', 'protein stability index', 2.76),
  ('NEPAARLGSEADAKAFL [FAS2]', 'protein stability index', 3.31),
  ('LKIIHDTFRWVGKKSAP [RPO31]', 'protein stability index', 3.14),
  ('PNKVKTEDIRIRAQNFK [RRP6]', 'protein stability index', 2.84),
  ('DMPSLRLIDLSGCENIT [GRR1]', 'protein stability index', 2.65),
  ('YIYSHVNKVPQNVAGDK [SWP82]', 'protein stability index', 2.97),
  ('QMSDKHATVVPPEEFSN [SRB7]', 'protein stability index', 2.86),
  ('GAKQTQGGAMNKKSEQA [SRP72]', 'protein stability index', 3.47),
  ('LGWDLDAIIPFAAIPEQ [FAS2]', 'protein stability index', 3.15);
